For each entry below, report its self-splicing fitness (ln) value.
- protocol_notes: self-splicing fitness, log relative to wild type (ln ratio); higher = more splicing; Tetrahymena group I intron in knt gene, E. coli kanamycin selection, DiMSum; sequences stand for … in CUCUCU…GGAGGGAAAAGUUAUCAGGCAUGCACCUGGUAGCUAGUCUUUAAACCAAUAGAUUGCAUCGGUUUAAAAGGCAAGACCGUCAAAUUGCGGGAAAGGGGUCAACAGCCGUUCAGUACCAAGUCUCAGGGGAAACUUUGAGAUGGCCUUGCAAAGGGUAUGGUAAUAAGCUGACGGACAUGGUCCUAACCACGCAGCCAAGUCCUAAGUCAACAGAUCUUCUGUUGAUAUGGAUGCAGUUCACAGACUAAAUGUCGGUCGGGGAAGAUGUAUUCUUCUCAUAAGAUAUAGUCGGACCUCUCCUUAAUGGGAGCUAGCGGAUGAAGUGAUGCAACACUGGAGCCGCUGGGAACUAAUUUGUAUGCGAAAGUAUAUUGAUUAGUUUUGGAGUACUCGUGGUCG;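 note: selection with 25 µg/mL kanamycin versus none on LB agar overnight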
- recorded_conditions: 37 °C
Kindly provide the number alone.

What measured self-splicing fitness (ln) goes with `UGACAGCAAUAUUACGAUCA` ?
0.116

What measured self-splicing fitness (ln) goes with `GGACAGCAAUAUUACGCAAA` ?
-0.67

What measured self-splicing fitness (ln) goes with `CGGCAGCAAUAUUACGUCUC` ?
-0.433

What measured self-splicing fitness (ln) goes with `GGCGAGCAAUAUUACGCCAA` ?
-2.45

What measured self-splicing fitness (ln) goes with `UAAUAGCAAUAUUACGUGCC` ?
-1.47

What measured self-splicing fitness (ln) goes with `AUGUAGCAAUAUUACGUCCC` ?
-1.02

What measured self-splicing fitness (ln) goes with `CCUCAGCAAUAUUACGUUAU` ?
-2.49

What measured self-splicing fitness (ln) goes with `AAAGAGCAAUAUUACGCACG` ?
-2.22

###

- protocol_notes: self-splicing fitness, log relative to wild type (ln ratio); higher = more splicing; Tetrahymena group I intron in knt gene, E. coli kanamycin selection, DiMSum; sequences stand for … in CUCUCU…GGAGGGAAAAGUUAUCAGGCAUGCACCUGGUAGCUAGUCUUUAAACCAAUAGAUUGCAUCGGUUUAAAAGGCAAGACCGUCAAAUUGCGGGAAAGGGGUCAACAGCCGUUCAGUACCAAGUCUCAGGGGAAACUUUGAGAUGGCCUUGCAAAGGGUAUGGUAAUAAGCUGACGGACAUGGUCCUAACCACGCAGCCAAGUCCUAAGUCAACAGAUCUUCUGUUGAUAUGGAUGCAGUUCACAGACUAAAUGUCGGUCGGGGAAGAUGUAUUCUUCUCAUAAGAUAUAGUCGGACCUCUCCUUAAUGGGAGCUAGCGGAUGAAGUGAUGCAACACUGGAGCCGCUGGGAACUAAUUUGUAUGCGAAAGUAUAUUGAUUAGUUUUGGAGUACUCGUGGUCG
- recorded_conditions: 37 °C
measurement_kind: self-splicing fitness (ln)

What measured self-splicing fitness (ln) goes with `GAAUAGCAAUAUUACGCCCG` ?
-0.828

What measured self-splicing fitness (ln) goes with `AAGAAGCAAUAUUACGCGGG` ?
-0.684

What measured self-splicing fitness (ln) goes with `GCACAGCAAUAUUACGAGCC` ?
-2.01

What measured self-splicing fitness (ln) goes with `CAAUAGCAAUAUUACGACGC` ?
-0.616

What measured self-splicing fitness (ln) goes with `GUAAAGCAAUAUUACGUCCC` ?
0.449

What measured self-splicing fitness (ln) goes with `GUCCAGCAAUAUUACGGUCC` ?
-2.68

What measured self-splicing fitness (ln) goes with `UACAAGCAAUAUUACGGGGU` ?
-2.58

What measured self-splicing fitness (ln) goes with `CCCAAGCAAUAUUACGACCU` ?
-2.44

What measured self-splicing fitness (ln) goes with `UAACAGCAAUAUUACGCGAU` ?
-2.36

What measured self-splicing fitness (ln) goes with `AAUGAGCAAUAUUACGUUGC` ?
-2.78

What measured self-splicing fitness (ln) goes with `GUCCAGCAAUAUUACGAUGG` ?
-3.37

What measured self-splicing fitness (ln) goes with `CUGCAGCAAUAUUACGAGGG` ?
-1.95

What measured self-splicing fitness (ln) goes with `UUGAAGCAAUAUUACGUGAC` ?
-1.29

What measured self-splicing fitness (ln) goes with `AAGAAGCAAUAUUACGCGGU` ?
-1.54

What measured self-splicing fitness (ln) goes with `CCGUAGCAAUAUUACGCAUG` ?
-1.09

What measured self-splicing fitness (ln) goes with `AAUAAGCAAUAUUACGCUGC` ?
-2.67
